- Test system: SEM cells
- Test summary: cell viability relative to DMSO control; higher = less cytotoxic
- Setup conditions: RPMI 5 mM glucose + 10% FBS; 48 h; 5.12 µM
Property name: cell viability (%)
Give the quantity in %, number only.

Worked examples follow.
1) CN1C(=O)C(=C\C2=C1N=C(NC3=CC=CC(=C3)C(O)=O)N=C2)/C4=C(Cl)C=CC=C4Cl: 84.2
2) CN(C)c1ccc2nc3ccc(N(C)C)cc3[s+]c2c1: 87.2
3) OC1=CC=C(C=C1)\C2=C\OC3=C(C(=CC(=C3)O)O)C2=O: 91.9
4) O=C(CS(=O)Cc1ccco1)NC/C=C\COc1cc(CN2CCCCC2)ccn1 (stereo not drawn): 93.6
5) CC(C)=CCC/C(C)=C/CC/C(C)=C/CSc1ccccc1C(=O)O: 62.4
6) O=C1CCC[C@@H]2[C@H]3CCCN4CCC[C@@H](CN12)[C@@H]34: 63.1
7) CC(C)(F)C[C@H](N[C@@H](c1ccc(-c2ccc([S+](C)(=O)[O-])cc2)cc1)C(F)(F)F)C(=O)NC1(C#N)CC1: 96.5

Request the reported cell viability associated with CC(=O)OC[C@H]1O[C@@H]([S-])[C@H](OC(C)=O)[C@@H](OC(C)=O)[C@@H]1OC(C)=O.CCP(CC)CC.[Au+]
6.02

Origin of measurements: the supplement of paper PMC11451515
